# protein stability index values compiled below
B1: MAGEA6 (parent)
chain: KISGGPRISYPLLHEWALREGEE

variants of: B1; experiment: protein stability index of a GFP-peptide fusion (GPS, HEK-293T) (PSI 1-6); higher = more stable; settings: c terminus: native;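 further: lentivirally expressed fusions sorted by FACS into six bins by GFP to DsRed ratio, PSI derived from sequencing read proportions per bin multiplied by bin number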
Respond with the number and no other words.

> print(dat)
   mutant.id             readout.kind  observed.result
1       E15I  protein stability index             2.14

Requested read-out: protein stability index. Entry: "E15N" 2.31

Requested read-out: protein stability index. Entry: "Y10Q" 3.78

Requested read-out: protein stability index. Entry: "W16N" 2.54

Requested read-out: protein stability index. Entry: "R19P" 2.18

Requested read-out: protein stability index. Entry: "E22S" 2.12
